Target System: UniProt:P01116
Sequence (P01116 whole entry): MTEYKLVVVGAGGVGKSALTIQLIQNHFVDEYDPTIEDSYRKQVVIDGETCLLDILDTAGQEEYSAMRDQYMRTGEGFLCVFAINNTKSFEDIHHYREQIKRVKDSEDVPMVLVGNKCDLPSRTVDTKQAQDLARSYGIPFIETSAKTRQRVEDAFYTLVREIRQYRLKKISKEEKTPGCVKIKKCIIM
Protocol Notes: Binding to KRAS by surface plasmon resonance (SPR), Single Cycle Kinetics
Settings: SPR, Single Cycle Kinetics, GDP-bound KRAS wild-type protein; read-out: KRAS KD
Measurement Type: log10(Kd) (log10 of the value in nM)
Could you please treat all values as log10 of Kd in nM?

>>> assay_value("C#CC[C@H]1C(=O)N[C@@H]([C@@H](C)CC)C(=O)N(C)CC(=O)N(C)[C@H]2C/C=C\\CCN(C2=O)[C@@H](Cc2ccc(C(F)(F)F)cc2)C(=O)N(C)CC(=O)N[C@@H](CCc2cc(F)c(C(F)(F)F)c(F)c2)C(=O)N2C[C@H](OCC)C[C@H]2C(=O)NC2(CC(C)(C)C2)C(=O)N(C)[C@@H](C2CCCC2)C(=O)N(C)[C@H](C(=O)N(C)CC)CC(=O)N1C [PP2073]")
-1.11
>>> assay_value("CCCOC[C@H]1C(=O)N[C@@H]([C@@H](C)CC)C(=O)N(C)CC(=O)N(C)[C@H]2C/C=C\\CCN(C2=O)[C@@H](Cc2ccc(C)cc2)C(=O)N(C)CC(=O)N[C@@H](CCc2ccc(C(F)(F)F)c(OC)c2)C(=O)N2C[C@H](OCC)C[C@H]2C(=O)NC2(CC(C)(C)C2)C(=O)N(C)[C@@H](C2CCCC2)C(=O)N(C)[C@H](C(=O)N(C)C)CC(=O)N1C [PP2449]")
-1.21
>>> assay_value("CCO[C@@H]1C[C@H]2C(=O)NC3(CCC3)C(=O)N(C)[C@@H](C3CCCC3)C(=O)N(C)[C@H](C(=O)N(C)C)CC(=O)N(C)[C@@H](Cc3cccc(F)c3)C(=O)N[C@@H]([C@@H](C)CC)C(=O)N(C)CC(=O)N(C)[C@H]3C/C=C\\CCN(C3=O)[C@@H](Cc3ccc(C(F)(F)F)cc3)C(=O)N(C)CC(=O)N[C@@H](CCc3cc(F)c(C(F)(F)F)c(F)c3)C(=O)N2C1 [PP1126]")
-1.05
>>> assay_value("CCCC[C@H]1C(=O)N[C@@H]([C@@H](C)CC)C(=O)N(C)CC(=O)N(C)[C@H]2C/C=C\\CCN(C2=O)[C@@H](Cc2ccc(C(F)(F)F)cc2)C(=O)N(C)CC(=O)N[C@@H](CCc2cc(F)c(C(F)(F)F)c(F)c2)C(=O)N2C[C@H](OCC)C[C@H]2C(=O)NC2(CC(F)(F)C2)C(=O)N(C)[C@@H](C2CCCC2)C(=O)N(C)[C@H](C(=O)N(C)C)CC(=O)N1C [PP1740]")
-1.28
>>> assay_value("CC[C@H](C)[C@@H]1NC(=O)[C@H](CC2CCC2)N(C)C(=O)C[C@@H](C(=O)N(C)C)N(C)C(=O)[C@H](C2CCCC2)N(C)C(=O)C2(CCC2)N(C)C(=O)[C@@H]2CCCN2C(=O)[C@H](CCc2cc(F)c(C(F)(F)F)c(F)c2)NC(=O)CN(C)C(=O)[C@H](Cc2ccc(C)cc2)N2CC/C=C\\C[C@@H](C2=O)N(C)C(=O)CN(C)C1=O [PP1802]")
-1.09

For every listed record, write down its log10(Kd).
1. CCOC[C@H]1C(=O)N[C@@H]([C@@H](C)CC)C(=O)N(C)CC(=O)N(C)[C@H]2C/C=C\CCN(C2=O)[C@@H](Cc2ccc(C(F)(F)F)cc2)C(=O)N(C)CC(=O)N[C@@H](CCc2ccc(C(F)(F)F)c(OC)c2)C(=O)N2C[C@@H](C)C[C@H]2C(=O)NC2(CC(C)(C)C2)C(=O)N(C)[C@@H](C2CCCC2)C(=O)N(C)[C@H](C(=O)N(C)CC)CC(=O)N1C [PP1993]
2. CCC[C@H]1C(=O)N[C@@H]([C@@H](C)CC)C(=O)N2C[C@@H](OC)C[C@H]2C(=O)N(C)[C@H]2C/C=C\CCN(C2=O)[C@@H](Cc2ccc(C)cc2)C(=O)N(C)CC(=O)N[C@@H](CCc2ccc(C(F)(F)F)c(OC)c2)C(=O)N2C[C@@H](C)C[C@H]2C(=O)NC2(CC(C)(C)C2)C(=O)N(C)[C@@H](C2CCCC2)C(=O)N(C)[C@H](C(=O)N(C)C)CC(=O)N1C [PP2388]
3. CCCC[C@H]1C(=O)N[C@@H]([C@@H](C)CC)C(=O)N(C)CC(=O)N(C)[C@H]2C/C=C\CCN(C2=O)[C@@H](Cc2ccc(C(F)(F)F)cc2)C(=O)N(C)CC(=O)N[C@@H](CCc2cc(F)c(C(F)(F)F)c(F)c2)C(=O)N2C[C@H](OCC)C[C@H]2C(=O)NC2(CC(C)(C)C2)C(=O)N(C)[C@@H](C2CCCC2)C(=O)N(C)[C@H](C(=O)N(C)C)CC(=O)N1C [PP1649]
4. CCO[C@@H]1C[C@H]2C(=O)NC3(CCC3)C(=O)N(C)[C@@H](C(CC)CC)C(=O)N(C)[C@H](CC)CC(=O)N(C)[C@@H](CC)C(=O)N[C@@H]([C@@H](C)CC)C(=O)N(C)CC(=O)N(C)[C@H]3C/C=C\CCN(C3=O)[C@@H](Cc3ccc(C(F)(F)F)cc3)C(=O)N(C)CC(=O)N[C@@H](CCc3cc(F)c(C(F)(F)F)c(F)c3)C(=O)N2C1 [PP1624]
5. CC[C@H](C)[C@@H]1NC(=O)[C@H](CC)N(C)C(=O)C[C@@H](C(=O)N(C)C)N(C)C(=O)[C@H](C2CCCC2)N(C)C(=O)C2(CCCC2)N(C)C(=O)[C@@H]2CCCN2C(=O)[C@H](CCc2cc(F)c(C(F)(F)F)c(F)c2)NC(=O)CN(C)C(=O)[C@H](Cc2ccc(C)cc2)N2CC/C=C\C[C@@H](C2=O)N(C)C(=O)[C@@H]2CCCN2C1=O [PP1811]
6. CC[C@H](C)[C@@H]1NC(=O)[C@H](CC(C)C)N(C)C(=O)C[C@@H](C(=O)N2CCOCC2)N(C)C(=O)[C@H](C2CCCC2)N(C)C(=O)C2(CCC2)NC(=O)[C@@H]2C[C@@H](OCC3CC3)CN2C(=O)[C@H](CCc2cc(F)c(C(F)(F)F)c(F)c2)NC(=O)CN(C)C(=O)[C@H](Cc2ccc(C(F)(F)F)cc2)N2CCCCC[C@@H](C2=O)N(C)C(=O)CN(C)C1=O [PP1005]

[-0.92, -0.48, -1.19, 0.04, -0.64, 0.04]

src = patent US20240158446A1
